biological target: PKB, full-length recombinant bovine protein, alpha form (Bos taurus, UniProt Q01314); assay: PKB inhibition in vitro enzyme assay (radioactive phosphate incorporation, scintillation counting); settings: PKB in vitro enzyme assay, 15 min at room temperature
Sequence (Q01314 whole entry): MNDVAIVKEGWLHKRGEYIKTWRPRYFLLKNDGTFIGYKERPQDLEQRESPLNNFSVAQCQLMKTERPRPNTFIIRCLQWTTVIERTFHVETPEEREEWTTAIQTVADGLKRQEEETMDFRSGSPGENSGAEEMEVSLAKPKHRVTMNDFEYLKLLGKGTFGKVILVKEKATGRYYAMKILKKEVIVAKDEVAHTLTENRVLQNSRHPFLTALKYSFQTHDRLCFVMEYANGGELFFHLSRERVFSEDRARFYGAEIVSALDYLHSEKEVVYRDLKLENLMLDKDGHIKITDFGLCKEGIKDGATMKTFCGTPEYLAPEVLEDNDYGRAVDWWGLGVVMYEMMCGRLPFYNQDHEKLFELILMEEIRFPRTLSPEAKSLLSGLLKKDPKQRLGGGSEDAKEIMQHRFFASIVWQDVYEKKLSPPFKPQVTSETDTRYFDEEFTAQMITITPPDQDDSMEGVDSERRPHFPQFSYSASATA
pIC50: −log10 of the molar value.
QUANTITY: pIC50

- COc1ccc2c(c1)-c1nc3nnnn3nc1C2=O: 4.70
- O=C1c2ccccc2-c2nc3nnnn3nc21: 4.82

====

molecular target: PKB, full-length recombinant bovine protein, alpha form (Bos taurus); assay: PKB inhibition in vitro enzyme assay (radioactive phosphate incorporation, scintillation counting); conditions: PKB in vitro enzyme assay, 15 min at room temperature
pIC50: −log10 of the molar value.
QUANTITY: pIC50

* Cc1ccc2nc3c(nc2c1)-c1ccccc1C3=O | < 4.00
* O=C1c2ccccc2-c2nccnc21 | < 4.00
* N#Cc1nc2c(nc1C#N)-c1ccccc1C2=O | < 4.00
